Source of measurements: PubChem BioAssay AID624037

Biological target: Muscarinic acetylcholine receptor M5 (Homo sapiens) (UniProt P08912)
Sequence (P08912 whole entry, looked up): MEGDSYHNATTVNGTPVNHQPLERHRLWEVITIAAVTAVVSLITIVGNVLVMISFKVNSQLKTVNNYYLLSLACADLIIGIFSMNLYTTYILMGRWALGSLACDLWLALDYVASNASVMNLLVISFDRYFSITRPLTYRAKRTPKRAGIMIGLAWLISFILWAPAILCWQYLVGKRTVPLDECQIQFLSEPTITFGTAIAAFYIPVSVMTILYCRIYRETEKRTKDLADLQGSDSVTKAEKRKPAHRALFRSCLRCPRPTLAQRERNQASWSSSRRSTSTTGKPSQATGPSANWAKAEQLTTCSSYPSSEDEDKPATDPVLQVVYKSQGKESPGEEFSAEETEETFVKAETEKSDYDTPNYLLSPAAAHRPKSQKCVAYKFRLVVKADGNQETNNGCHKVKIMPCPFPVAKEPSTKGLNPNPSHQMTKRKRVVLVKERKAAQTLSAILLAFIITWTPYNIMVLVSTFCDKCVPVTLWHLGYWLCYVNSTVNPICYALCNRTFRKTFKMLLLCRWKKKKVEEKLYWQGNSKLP
Experiment: CHRM5 activators raising intracellular calcium – CHO-K1 cells, Fluo-8 calcium fluorescence, primary screen (AID 624037);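 note: signal is peak over basal fluorescence ratio across the kinetic read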
Conditions: CHO-K1 hM5 cells, at 3 µM, 0% DMSO wells, 100% maximal acetylcholine response
Screen size: about 360,000 compounds; about 700 (0.19%) were called active.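 Rule for the calls: active = activation above the run's mean over test compounds plus 3 SD (cut at about 23% in these data); inactive = the rest.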 What follows is part of a selection rich in actives, with near analogues and random picks from the rest.
Outcomes: 1 (active), -1 (inactive)

compound: Cc1ccc(NC(=O)C(C)c2cccc(C(=O)c3ccccc3)c2)cc1 (stereo not drawn)
qualitative_label: -1
//
compound: Cc1occc1C(=O)NC1CCCN(Cc2ccc(CC(C)C)cc2)C1 (stereo not drawn)
qualitative_label: -1
//
compound: CCOCCCNC(=S)Nc1ccc2nc(N3CCN(CC)CC3)cc(C)c2c1
qualitative_label: -1
//
compound: CC(=O)NC1=NN(C(C)=O)C(C)(c2ccc(C)cc2)S1 (stereo not drawn)
qualitative_label: -1
//
compound: Cc1nn(C)cc1N1C(=O)c2cccc3c(N)ccc(c23)C1=O
qualitative_label: 1
//
compound: NS(=O)(=O)c1cccc(NC(=O)CC23CC4CC(CC(Br)(C4)C2)C3)c1
qualitative_label: -1
//
compound: Cc1cc(NC(=O)Nc2ccccc2[N+](=O)[O-])no1
qualitative_label: -1
//
compound: C/C(=C/C(=O)N1CCN(C)CC1)C(=O)O
qualitative_label: -1
//
compound: CCn1c(CNc2ccc(OC)cc2)nnc1SCC(=O)c1ccc(OC)cc1
qualitative_label: -1
//
compound: O=C(COc1nc2ccccc2nc1N1CCOCC1)NCC(F)(F)F
qualitative_label: -1
//
compound: CCCCCCCCNS(=O)(=O)CCNC1CCCCC1
qualitative_label: -1
//
compound: COc1ccccc1/C=C/CN1CCC(CO)(Cc2ccccc2)CC1
qualitative_label: -1
//
compound: C[C@@H]1CN([C@@H](C)CO)S(=O)(=O)c2ccc(-c3ccc(C(=O)N(C)C)cc3)cc2O[C@@H]1CN(C)Cc1ccccc1C(=O)O
qualitative_label: -1
//
compound: O=c1[nH]oc(O)c1-c1ncc(C(F)(F)F)cc1Cl
qualitative_label: -1
//
compound: C[C@H]1COC(=O)[C@H](CC(=O)OC(C)(C)C)C/C=C\C[C@@H](CC(=O)N[C@H](CO)Cc2ccccc2)C(=O)N1
qualitative_label: -1
//
compound: CCN(C(=O)COC(=O)c1cc(NS(=O)(=O)c2ccc(Cl)c([N+](=O)[O-])c2)ccc1O)C1CCCCC1
qualitative_label: -1
//
compound: CCCCC[C@H]1CN(C2CCCCC2)C(=O)[C@@H]1CC(=O)NCc1ccc(OC)cc1
qualitative_label: -1
//
compound: CN(Cc1ccccc1)C(=O)COC(=O)/C=C/c1ccc2c(c1)OCO2
qualitative_label: -1

---

Molecular target: Muscarinic acetylcholine receptor M5 (Homo sapiens) (UniProt P08912)
Assay: CHRM5 activators raising intracellular calcium – CHO-K1 cells, Fluo-8 calcium fluorescence, primary screen (AID 624037);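 note: signal is peak over basal fluorescence ratio across the kinetic read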
Conditions: CHO-K1 hM5 cells, at 3 µM, stronger effect = higher value, 0% DMSO wells, 100% maximal acetylcholine response
Hit rate of the full screen: of about 360,000 compounds, about 700 (0.19%) were called active. For the sample, actives were picked, then their nearest neighbours and some compounds at random.
// activation lookup, one value per entry

compound: CCn1cc(C(=O)NCC2COc3ccccc3O2)c2cc(OC)c(OC)cc2c1=O (stereo not given)
activation: 1.23% (inactive)
//
compound: O=C(Cn1cnc2c(OCc3ccccc3)ncnc21)NCc1nc2ccccc2[nH]1
activation: -0.16% (inactive)
//
compound: COc1cc(Cl)c(S(=O)(=O)n2cnc(C)c2)cc1Cl
activation: 0.51% (inactive)
//
compound: COc1cccc(C(=O)NNC(=O)/C=C/c2ccccc2)c1
activation: -2.95% (inactive)
//
compound: COc1ccc(Cl)cc1S(=O)(=O)N1CCC(O)(c2ccc(Cl)cc2)CC1
activation: -0.77% (inactive)
//
compound: CCc1sc(C(=O)N2CCN(CC(=O)Nc3cccc(F)c3)CC2)cc1C
activation: -3.37% (inactive)
//
compound: COc1cc(OC)c(-n2cc(-c3ccc(Cl)cc3)[nH]c2=O)cc1Cl
activation: 42.8% (active)
//
compound: CC(=O)C[C@@H]1OC[C@H](CO)N1S(=O)(=O)c1ccc(C)cc1
activation: 4.39% (inactive)
//
compound: O=C1C(=O)N(CC2COc3ccccc3O2)c2ccccc21 (stereo not given)
activation: 26.9% (active)
//
compound: CCOc1ccc(C(=O)NC(=S)Nc2ccc(N3CCOCC3)c(Cl)c2)cc1[N+](=O)[O-]
activation: -0.99% (inactive)
